# experiment description: label from the status in PepcDB records
value type: protein production

Some solved entries appear below for comparison.
MMIAAAIFTTCVDGNKFFYHREIKVLRHLKRFNKPALKSIKSEDGDVIDCVPITNQPAFDHHLLKNHTIQMRPSFYPVSDSTYTKREAKAVTQVWHKAGECPKNTVPIRRTKKEDLLRPKSIRSFGRKSHQSIPRTTTFDPTLGHQYALMGVRNGKFYGTEVAINLWKPYVQIPKEFSLAQTWVVSGNGSSLNTIEAGWQVYPELYDDNNPRFFVYWTRDGYRKTGCYNLLCSGFVQTSNRYTVGGSITTMSRYRGTQYDLSVLIWKDQKTGNWWLRVNEKDVIGYWPGSLFNSLGREATRVEWGGEIINSKTGGRHTTTDMGSGHFADEGFKKASYFRNLKIVDGTNTLREPQGLYFFADKHNCYNVKTGNGGTSWGAHFFYGGPGRNVKCP ... not failed
MSNEHTRPPLPPFTRESAIEKVRLAEDGWNTREPEKIALAYTVDTQWRNRAEFANNREEARDFLTRKWKKELDYRLIKELWAFTDNRIAVRYAYEWHDDSGNWFRSYGNENWEFEADGLMHRRFACINDMPIKESERKFHWPLGRRPDDHPGLTELGLLEHHHHHH ... failed
MEMYFKRMKDEWTGLVEQADPPIRAKAAEIAVAHAHYLSIEFYRIVRIDPHAEEFLSNEQVERQLKSAMERWIINVLSAQVDDVERLIQIQHTVAEVHARIGIPVEIVEMGFRVLKKILYPVIFSSDYSAAEKLQVYHFSINSIDIAMEVMTRAFTFSDSSASKELEHHHHHH ... not failed
MHIAILGCTSQIAKDLIRSIYVYSQHDLILFGRTPQQTQSWLAENGITSRCSVNQYEEYPNIDHDVVINFVGIGDPSKAAAMGGSIFDITLHYDELVLNELKKYPDRRYLFLSSGAAYGSSFLEPADADTPSTININNLLPQEYYSVAKLHAECRHRSLKEYAIVDLRVFNVFSRTQDLEARFFITDIVRSIHSGTELITSSDMIYRDFMHPKDFYQLVERVLNAPPMNISLDCYSRQPVDKTTLLDEMKKTFGLSYRVKESNMSINATGIKPCYYSKNKRAAEFGYLPEYSSLETIIEETNAILGLQKTVLEHHHHHH ... not failed
MNPEVTVLMSVYNDKNYLSESIESILNQTFENFEFLIINDASTDGSGELLEEYSKKDKRIRLIHNKNNRGLSYSLAEGVSLAKAPWIARMDADDVSFKDRLAVQMDHVKAHSELDILGSYVIDIDDKGNELEIRKVPTTHKEIANLIWTCPFIHPTVLFKKDSIIKAGSYDRNLRRRQDYDLWFRCLEAKLKFENIDKPLLYYRSTDDYYKKNNFKVQVQQAKMGFAGARRVKAKPIAYIGITVAFIKGILPYHIRKPLSQLLKKVDPRRALEHHHHHH ... not failed

Now let's try a different one.
*Q* Which protein production is reported for this sequence? `MQEISAYTLIKEKLQAIPNLRHKGILFEKISKQFLQEHDSANEYESIDLWYDWKLRGNERDKGIDIVITTFKQRIHRCAMQIPSK`
*A* failed

---

# experiment description: label from the status in PepcDB records
value type: protein production

MSNKLLLVFALIGIIVVFSCGLFLPIPIGYRVSMLTAGVIMSVVFSIIIPFDRKHIVRKKGNKIDFTKTKVYFRWNVFDTISVCLALYACICVQVLIFLVPMGFTIQNPYVQFFTNQSQLWVFIAIAYLISRISLTLKGIKEIKNHGADWD ... failed
MSDQKNRRNALIGAAFLMATSAIGPGFLTQTATFTQALAASFGFVILLSILLDIGAQLNIWRIVAVSEKQAQDIANQVLPGAGYFLAVLIVMGGLAFNIGNVGGAGLGLNLLTGLSPETGAVISGVIAIGVFLFKEAGKVMDKFAQVMGFVMIALTVYVAWQANPPLADAAVHTFMPEKLDAMAIVTLVGGTVGGYITFAGAHRLLDAGIKGKSALPEVSQSSVRAILIASIMRIVLFLAVLGVVSQGVQLNPDNPASTPFEYAAGYIGLLIFGVVIWAASITSVIGAAYTSVSFFSGLSPSIERNKNKWIIAFIAVSTAVFSTIGKPAQVLVFVGALNGLILPISLGLILIAAYKTKIVGDYKHPLWLTVSGVIVVGLMAVLSAITISKYIGGLFG ... failed
MDTRFCSSLLIKNLNTFPASNKEIMNVTVSEAERNAGDERPDLQACAEAYAIVNSAFTKAVTFFKQAYYSKIVNIEKKVSMAVDICKTDFNVLGYQINPLIEKNRQTKILLSMEQIVSHMVSS ... failed
